# ASSAY METHOD TEXT: NCI Yeast Anticancer Drug Screen. Data for the mlh1 rad18 strain (AID 175)
# MEASUREMENT SETUP: S. cerevisiae mlh1 rad18 strain growth inhibition; at 50.0 µM
About 79,000 compounds went through this panel and 15% of them were active in at least one assay; those are over-represented in the sample as a whole. Calls of active or inactive are those of the source. Cut-off read from the data, not from the text of the source: active = growth inhibition above about 70%; inactive = the rest.
Give one outcome, nothing more. List: true (1) for active, false (0) for inactive

Illustrative cases are given below, each with its answer.
COMPOUND: CCOc1ccc(/C=N/NS(=O)(=O)c2ccc(C)cc2)cc1
LABEL VALUE: false (0)
--
COMPOUND: Cc1nc(-[n+]2nc(-c3ccccc3)nn2-c2ccccc2)sc1C
LABEL VALUE: false (0)
--
COMPOUND: COc1cc2c(cc1O)C(Cc1ccc(OC)c(OC)c1)N(C)CC2 (centres undefined)
LABEL VALUE: false (0)
--
COMPOUND: N#CC1(C#N)C2CCCCC23OC(=N)C1(C#N)C(c1ccco1)O3 (centres undefined)
LABEL VALUE: false (0)
--
COMPOUND: C[Si](C)(CCl)N[Si](C)(C)CCl
LABEL VALUE: false (0)
--
COMPOUND: O=c1c2ccccc2nc(-c2ccccc2)n1/N=C/c1ccccc1[N+](=O)[O-]
LABEL VALUE: false (0)
--
COMPOUND: CN(C)/C=C/C(=O)c1ccccc1[N+](=O)[O-]
LABEL VALUE: false (0)
--
COMPOUND: C=CCn1c2c(c3ccccc3c1=O)C(=O)c1ccccc1-2
LABEL VALUE: false (0)

Per the records of this test, what outcome belongs to CC1(C)C2CCC1(CS(=O)(=O)O)C(=O)C2 (centres undefined) ? false (0)

Per the records of this test, what outcome belongs to C/C(=C\COc1cc(O)c2c(c1)C(=O)c1cc(C)cc(O)c1C2=O)CCC1OC1(C)C (centres undefined) ? false (0)

Per the records of this test, what outcome belongs to C/C(O)=C/c1nc2sc(C)c(C)c2c(=O)s1 ? false (0)

Per the records of this test, what outcome belongs to Nc1nc(N)nc(-c2ccccc2Cl)n1 ? false (0)

Per the records of this test, what outcome belongs to C[n+]1ccccc1/C=C/c1cccc(O)c1 ? false (0)

###

# ASSAY METHOD TEXT: NCI Yeast Anticancer Drug Screen. Data for the rad50 strain (AID 155);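 note: 0% = growth of vehicle-only cultures of the same strain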
# MEASUREMENT SETUP: S. cerevisiae rad50 strain growth inhibition; at 50.0 µM
The panel holds about 79,000 compounds, 15% with a hit somewhere; the sample as a whole holds those more often. Calls of active or inactive are those of the source. No stated cut-off is given here; in the data, active means growth inhibition above about 70%; inactive means the rest.
Give one outcome, nothing more. List: TRUE for active, FALSE for inactive

Illustrative cases are given below, each with its answer.
MOLECULE: CC1=CC(=O)c2ccc(C)cc2C1=O
LABEL VALUE: FALSE
//
MOLECULE: C=C1CC2(C)CCC(OC(=O)C3(C)OC3C)C(C)(OC(C)=O)C2CC1=C(C)C (stereo not given)
LABEL VALUE: FALSE

Per the records of this test, what outcome belongs to COC(=O)c1ccc(NC(=O)O/N=C(\Cl)C(C)C)cc1 ? FALSE

Per the records of this test, what outcome belongs to CC1=NN(c2ccccc2)C(=O)C1CCC#N (stereo not given) ? FALSE

Per the records of this test, what outcome belongs to NC(CCC(=O)OCc1ccccc1)C(=O)OCc1ccccc1 (stereo not given) ? FALSE

Per the records of this test, what outcome belongs to CCOC(=O)c1sc(N)c(C(=O)OCC)c1C ? FALSE

Per the records of this test, what outcome belongs to Cc1ccc(F)cc1NC(=O)O/N=C(\Cl)C(C)C ? FALSE

Per the records of this test, what outcome belongs to CC(=Nc1ccncc1)C(C)=Nc1ccncc1 ? TRUE

Per the records of this test, what outcome belongs to CC(C)C1OC(N)=C(C#N)C1(C#N)C#N (stereo not given) ? FALSE
